Tested on: SK-OV-3 ovarian
protocol text: NCI-60 one-dose screen, 48 h (100 = growth as untreated, 0 = no growth, -100 = all killed)
condition description: 10 µM unless noted
Compounds without any hit were thinned out: in the full panel of roughly 83,000, 20% have a hit. Active and inactive are the calls of the source. Rule for the calls: active = growth percent below 10; inactive = the rest.
# Lookup of reported growth keyed by entry

These recorded examples may help you get a feel for the data.
molecule=Clc1ccc2nnnn2n1 value_observed="92% (inactive)"
molecule="CCN(CCO)C(Cc1ccccc1)c1ccccc1 (stereo not given)" value_observed="110% (inactive)"
molecule=CCCCCCCCCCCCCCCCCCOc1ccccc1COP(=O)(O)OOCC[N+](C)(C)C value_observed="36.2% (inactive)"
molecule=Cn1cc(C=O)c2nccnc21 value_observed="101% (inactive)"

Looking up `C=C1C[C@](OC)([C@H](O)C(=O)N[C@@H](OC)[C@@H]2C[C@@H](O)C(C)(C)[C@@H](C[C@@H](COC)OC)O2)O[C@H](C)[C@@H]1C` , I see its growth listed as -9.43% (active)

###

Tested on: HOP-62 NSCLC
protocol text: NCI-60 one-dose screen, 48 h
condition description: 10 µM unless noted
The panel holds about 83,000 compounds, 20% with a hit somewhere; the sample as a whole holds those more often. Calls of active or inactive are those of the source. The calls were made as follows: active = growth percent below 10; inactive = the rest.
Use one of these outcomes when replying: active, inactive

molecule="COC(C(=O)[C@@H](O)[C@@H](C)O)[C@@H]1Cc2cc3cc(O[C@H]4C[C@@H](O[C@H]5C[C@@H](O)[C@H](O)C(C)O5)[C@H](O)C(C)O4)c(C)c(O)c3c(O)c2C(=O)[C@H]1O[C@H]1C[C@@H](O[C@H]2C[C@@H](O[C@H]3C[C@@H](O)[C@@H](O)C(C)O3)[C@@H](O)C(C)O2)[C@H](O)C(C)O1 (some centres not stated)" assayed_target="HOP-62 NSCLC" group=active
molecule=C[C@]12CCc3sc(-c4ccccc4O)nc3C1=CC[C@@H]1[C@@H]2CC[C@]2(C)C(=O)CC[C@@H]12 assayed_target="HOP-62 NSCLC" group=inactive
molecule=CC[C@H](C)[C@@H]([C@@H](CC(=O)N1CCC[C@H]1[C@H](OC)[C@@H](C)C(=O)N[C@H](C)[C@@H](O)c1ccccc1)OC)N(C)C(=O)[C@@H](NC(=O)[C@@H](NC)C(C)C)C(C)C assayed_target="HOP-62 NSCLC" group=inactive
molecule="CCN(CC)c1ccc2c(c1)OC(N)=C(C#N)C2c1cc(OC)c2c(c1)OCO2 (configuration not stated)" assayed_target="HOP-62 NSCLC" group=inactive
molecule=COc1ccc(C(O)(C(=O)O)c2ccc(OC)cc2)cc1 assayed_target="HOP-62 NSCLC" group=inactive

Q: Record request — test call for CC[C@H](C)[C@H](NC(=O)C12C3C4C1C1C2C3C41NC)C(=O)N(C)[C@H](C[C@@H](OC(C)=O)c1nc(C(=O)N[C@@H](Cc2ccccc2)C[C@H](C)C(=O)OC)cs1)C(C)C (some centres not stated)
Ans: inactive

Q: Lab log entry: `CCOc1ccc(/C=C/[N+](=O)[O-])cc1` — outcome as called in the assay?
Ans: inactive

Q: What outcome does the record of this test show for `CC(=O)Oc1ccccc1C(=O)NCCC[Se]C#N` ?
Ans: active

Q: Test call for this molecule, please: CC1CN1CCCCN1CC1C (configuration not stated)
Ans: inactive

Q: Per the assay record, what outcome was assigned to `O=C(O)c1c(Cl)n(Cc2ccc(O)cc2)c2ccc(O)cc12` ?
Ans: inactive

Q: Hi, do you know how `COc1ccc(NC([Se])=NC23CC4CC(CC(C4)C2)C3)cc1` came out in this test?
Ans: active

Q: GET /call?item= CCCCCCCCC(CO)NCCc1ccccc1 (configuration not stated) returns the recorded outcome of this test.
Ans: inactive

###

Tested on: UACC-257 melanoma
protocol text: NCI-60 one-dose screen, 48 h
condition description: 10 µM unless noted
The panel holds about 83,000 compounds, 20% with a hit somewhere; the sample as a whole holds those more often. Calls of active or inactive are those of the source. The calls were made as follows: active = growth percent below 10; inactive = the rest.
Pick one and only one: active, inactive

compound="CCC(O)(CN)c1ccccc1 (centres undefined)" group=inactive
compound=CCC(C)(C)[C@H](NC(=O)[C@H]1CCCCN1C)C(=O)N(C)[C@H](C[C@@H](OC(C)=O)c1nc(C(=O)N[C@@H](Cc2ccccc2)C[C@H](C)C(=O)O)cs1)C(C)C group=inactive
compound=ClCCN(CCCl)Cc1ccc(Nc2ccnc3cc(Cl)ccc23)cc1 group=inactive
compound=COc1ccc(-n2c(C)nc3cc(OC)c(OC)cc3c2=O)cc1OC group=inactive
compound=Clc1ccc(CO/N=C(\Cn2ccnc2)c2ccc(Cl)cc2Cl)c(Cl)c1 group=active
compound=ClCCN(CCCl)c1ccc(OCc2ccccc2)cc1 group=inactive

Q: # outcome recorded in this test, key = `Clc1ccc2nnnn2n1`
Ans: inactive

Q: So what was the verdict on `COc1cccc2c1c(C(=O)C(=O)Nc1ccn[nH]1)cn2Cc1ccc(F)cc1` in this test?
Ans: inactive

Q: Give the logged outcome of this assay for the following compound: CC(=O)OC1C(OC/C2=C/C3[C@@H](C(C)C)CC=C(C)[C@@H]3CC(OC(=O)/C=C/c3cn(C)cn3)[C@]3(C)C=C[C@@]2(O)O3)OCC(O)C1O (some centres undefined)
Ans: inactive

Q: # fetch the recorded call for `[Cl][Hg][c]1cc(Br)cc(Br)c1` here
Ans: inactive

Q: # fetch the recorded call for `CCCc1cc(O)c2c3c(c(=O)oc2c1)CN(C)CC3` here
Ans: inactive

Q: Outcome? CCCCN1CCCC[C@@H]1C(=O)N[C@H](C(=O)N(C)[C@H](C[C@@H](OC(C)=O)c1nc(C(=O)NC2CCC(C(=O)OC)CC2)cs1)C(C)C)C(C)C (some centres undefined)
Ans: inactive

Q: // outcome(item) with item = O=C(Nc1ccc([As]=[As]c2ccc(NC(=O)c3ccccc3)cc2)cc1)c1ccccc1 (centres undefined)
Ans: active

Q: Dear all, I need the recorded test outcome for `Clc1cc(N2CC2)nc(N2CC2)n1` , thank you.
Ans: inactive

Q: Which outcome was entered for the compound `O=C1NC(=O)C(=Cc2cccn2CCCCCn2c3ccccc3c(=O)c3ccccc32)C(=O)N1` in this test?
Ans: inactive

Q: Record lookup: outcome of this test for `Clc1cccc(NCOOC2(OOCNc3cccc(Cl)c3)CCCCC2)c1` ?
Ans: inactive

Q: Would you mind telling me which call this test gave COP(=O)(OC)C(O)c1ccc(Cl)cc1 (centres undefined) ?
Ans: inactive

Q: Outcome logged for `CC(=O)OCC1O[C@@H]([S-])C(OC(C)=O)[C@H](OC(C)=O)[C@@H]1OC(C)=O.[Au+].c1ccc(CN2[CH-]N(Cc3ccccc3)C(c3ccccc3)=C2c2ccccc2)cc1` in this assay:
Ans: inactive

Q: Status in this test for `O=Cc1cn(Cc2ccc(Cl)cc2)c2ccccc12` ?
Ans: inactive

###

The molecules listed here are annotated with their growth.
Tested on: RPMI-8226 leukemia
protocol text: NCI-60 one-dose screen, 48 h (100 = growth as untreated, 0 = no growth, -100 = all killed)
condition description: 10 µM unless noted
The panel holds about 83,000 compounds, 20% with a hit somewhere; the sample as a whole holds those more often.
The figure you give is taken to be in %; do not add the unit.

Notebook: C[S+]1C=Cc2ccccc2C1c1ccc(Cl)cc1 (stereo not drawn) , growth read as 40.8

response.value for `Oc1c(CCl)cc(Cl)cc1CCl` (field: growth) = 106

Value of measured growth for the entry CNC12C3C4C1C1C2C3C41C(=O)N[C@H](C(=O)N(C)[C@H](C[C@@H](OC(C)=O)c1nc(C(=O)N[C@@H](Cc2ccccc2)C[C@H](C)C(=O)OC)cs1)C(C)C)C1CC1 (stereo partly drawn) : -6.94

###

Tested on: MOLT-4 leukemia
protocol text: NCI-60 one-dose screen, 48 h
condition description: 10 µM unless noted
The panel holds about 83,000 compounds, 20% with a hit somewhere; the sample as a whole holds those more often. Active and inactive are the calls of the source. Rule for the calls: active = growth percent below 10; inactive = the rest.
Could you please pick one outcome from this set? true = active, false = inactive

Would you please look over these solved cases?
molecule="O=C1C2CC=CCC2C(=O)N1SC(Cl)(Cl)Cl (centres undefined)" group=false
molecule=C[C@]12CCc3sc(-c4cccc(F)c4)nc3C1=CC[C@@H]1[C@@H]2CC[C@]2(C)C(=O)CC[C@@H]12 group=true
molecule=CC(=O)/C=C/c1ccc2c(c1)OCO2 group=false

Q: Check the results log: what was the call for Oc1ccc2c3c1OC1[C@@H](O)CC[C@@]4(O)[C@@H](C2)N(CC2CCC2)CC[C@]314 (some centres undefined) ?
Ans: false

Q: Recorded test call requested for `C=CC[PH+](c1ccccc1)c1ccccc1.C=CC[PH+](c1ccccc1)c1ccccc1.[Cl][Pt][Cl]`
Ans: true

Q: What did the test return for `COC(=O)[C@@H](C)C[C@H](Cc1ccccc1)NC(=O)c1csc([C@@H](C[C@H](C(C)C)N(C)C(=O)[C@@H](NC(=O)[C@H]2CCCCN2C)C(C(F)(F)F)C(F)(F)F)OC(C)=O)n1` ?
Ans: true

Q: # outcome recorded in this test, key = `CC(C)(N)Cc1ccccc1`
Ans: false

Q: Outcome logged for `NC(CCl)CCl` in this assay:
Ans: false

Q: Can you look up the reported call for O=C1OCCC1Br (centres undefined) for me?
Ans: false
